Biological target: Follistatin (Homo sapiens)
Assay: FST protein binding to printed compounds – biochemical, small-molecule microarray, 635/667 nm fluorescence, primary screen (AID 1132)
Conditions: 635 nm fluorescence, higher = more signal
Mark yes for reported composite z-score of 0.4 or greater; mark no for anything smaller.

COc1ccc(CCNC(=O)[C@@H]2c3ccccc3C(=O)N(C3CCCCC3)[C@H]2c2ccc(CO)cc2)cc1 | yes
COCCOC(=O)N1C(=O)[C@@]2(c3cc(C#CCNC(N)=O)ccc31)[C@H](C(N)=O)[C@H]1C(=O)O[C@H](c3ccccc3)[C@H](c3ccccc3)N1[C@@H]2c1ccccc1OCCO | yes
C=C(/C(=C/C[C@H](OC(C)=O)c1ccc(CO)o1)c1cnc2ccccc2c1)C(C)C | yes
COCCOC(=O)N1C(=O)[C@@]2(c3cc(C#CC4(O)CCCCCC4)ccc31)[C@H](C(=O)N1CCc3cc(OC)c(OC)cc3C1)[C@H]1C(=O)O[C@H](c3ccccc3)[C@H](c3ccccc3)N1[C@@H]2c1ccc(OCCO)cc1 | yes
O=C1O[C@@H](c2ccccc2)[C@@H](c2ccccc2)N2[C@@H](c3ccc(OCCO)cc3)[C@]3(C(=O)Nc4ccc(C#CC5=CCCCC5)cc43)[C@@H](C(=O)NC[C@H](O)c3ccccc3)[C@H]12 | yes

Request: Evaluate COCCOC(=O)N1C(=O)[C@@]2(c3cc(C#CC4=CCCCC4)ccc31)[C@H](c1ccccc1OCCO)N1[C@H](c3ccccc3)[C@H](c3ccccc3)OC(=O)[C@H]1[C@@H]2C(=O)NC[C@H](O)c1ccccc1 : composite z-score at minimum 0.4?
Result: yes

Request: Another compound to check: C=CCC(OC(C)=O)[C@@H]1[C@@H](N(Cc2ccc(-c3cccc(C(F)(F)F)c3)o2)C(=O)Cc2ccc(OC)cc2)c2cc(OCCCO)ccc2N1C(=O)c1ccc(-c2ccccc2)cc1 (stereo partly specified)
Result: yes

Request: Another compound to check: [N-]=[N+]=Nc1ccccc1C[C@@]1(C(=O)N2CCOCC2)N=C(c2ccc(OCCCO)cc2)O[C@@H]1c1ccccc1
Result: yes

Request: Another compound to check: COc1ccc([Si](C)(C)[C@@H]2[C@@H](CC(=O)N3Cc4ccccc4C[C@H]3CO)O[C@]3(C(=O)N(Cc4ccc(N5C(=O)c6cccc7cccc5c67)cc4)c4ccccc43)[C@H]2C)cc1
Result: yes

Request: Another compound to check: COC(=O)C1=CC(CCCO)=CC(c2ccc(CN3CCCC3)cc2)N(Cc2cccc(OC(F)(F)F)c2)C=C1C(=O)OC (stereo unspecified)
Result: no
